The entries below are paired with their reported inhibition.
- system_tested: Histone deacetylase 2 (Homo sapiens, UniProt Q92769)
- Sequence (Q92769 whole entry): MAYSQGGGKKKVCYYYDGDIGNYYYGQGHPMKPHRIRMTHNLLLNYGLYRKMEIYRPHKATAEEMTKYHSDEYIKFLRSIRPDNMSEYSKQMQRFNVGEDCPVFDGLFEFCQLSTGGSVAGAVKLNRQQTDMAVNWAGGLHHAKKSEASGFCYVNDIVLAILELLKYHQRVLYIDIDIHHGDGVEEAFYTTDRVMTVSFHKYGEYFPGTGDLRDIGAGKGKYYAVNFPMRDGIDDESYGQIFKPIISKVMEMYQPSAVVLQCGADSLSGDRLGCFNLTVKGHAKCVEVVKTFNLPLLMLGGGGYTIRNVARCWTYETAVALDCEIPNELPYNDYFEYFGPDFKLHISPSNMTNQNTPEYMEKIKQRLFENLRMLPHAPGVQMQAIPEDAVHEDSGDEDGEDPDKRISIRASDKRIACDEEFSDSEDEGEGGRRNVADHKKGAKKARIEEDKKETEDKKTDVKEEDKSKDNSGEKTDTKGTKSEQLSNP
- experimental_protocol: Inhibition of full-length recombinant human C-terminal GST tagged HDAC2 expressed in Sf9 insect cells using aminoluciferin peptide substrate at 100 nM preincubated for 3 hrs followed by substrate addition and measured after 30 mins by HDAC-Glo I/II chemiluminescence assay
- protocol_conditions: time 3.5 hrs
endpoint_label: inhibition (%)

Nc1ccc(-c2cccs2)cc1NC(=O)c1cn(CCc2ccccc2Cl)nn1 | 3
Nc1ccc(-c2cccs2)cc1NC(=O)c1ccc(-c2cn(-c3cccc4ccccc34)nn2)cc1 | 0
Cc1cccc(CCn2cc(C(=O)Nc3cc(-c4ccc(F)cc4)ccc3N)nn2)c1 | 10
Nc1ccc(-c2cccs2)cc1NC(=O)c1cn(CCc2ccccn2)nn1 | 0
Nc1ccc(-c2ccc(F)cc2)cc1NC(=O)c1cn(CC(=O)c2ccccc2)nn1 | 6
Nc1ccc(-c2ccc(F)cc2)cc1NC(=O)CCc1cn(Cc2ccc(-c3ccccc3)cc2)nn1 | 0
Cc1ccc(-n2cc(CCC(=O)Nc3cc(-c4cccnc4)ccc3N)nn2)cc1C | 0
Nc1ccc(-c2cccs2)cc1NC(=O)c1ccc(-c2cn(CCc3ccccc3C(F)(F)F)nn2)s1 | 0
Nc1ccc(-c2ccccc2)cc1NC(=O)c1cn(CCc2cccc([N+](=O)[O-])c2)nn1 | 0
